Parameter Fold-Change ZH501/MP-12 (ratio of neutralization IC50s): see the listing below.
# TEST SYSTEM: Gc of RVFV-ZH501 (Rift Valley Fever Virus strain ZH501)
# EXPERIMENT: cell-based or functional assay
OUTCOME MEASURE: Fold-Change ZH501/MP-12 (ratio of neutralization IC50s) (fold)

- BINDER: "RVFV-326 (antibody, V domains shown) VH: EAQLVESGGGLVKPGGSLRLSCAASGFSFSYAWMSWVRRLPGKGLEWVGRIKGKADGETTDYAAPVKGRFTISRDDSKTTVYLQMNTLKIEDTGVYYCTTDIGDFYDSIGYSYTDYWGQGTLVTVSS VL: EIVLTQSPATLSLSPGERATLSCRASQSVSSYLAWYQQKPGQAPRLLIYDASNRATGIPVRFSGSGSGTDFTLTISSLEPEDFALYYCQQRSDWPPTFGQGTKVEIK"
  MEASURE UNIT: "fold"
  OBSERVED MEASUREMENT: 15.9
- BINDER: "RVFV-249 (antibody, V domains shown) VH: QVLLVQSEAEVRKPGASVKISCKTSGYTFTTYFMHWVRQAPGQGLEWVAIVDPSTGNTGYAQRFQGRVTVTRDTSTGTLFMELTSLTTEDTAMYYCGRDRGSRAVDSWGQGTLVTVFS VL: QSVLTQPPSVSGAPGQRVTISCSGSSSNVGPNTVSWYQQLPGVAPKLLIYRNNQRPSGVPDRFSGSKFGTSASLVIGGLQSEDEADYYCAAWDDSLNGHMVFGGGTKVAVL"
  MEASURE UNIT: "fold"
  OBSERVED MEASUREMENT: 4.4
- BINDER: "RVFV-250 (antibody, V domains shown) VH: QVQLQESGPGLAKPSETLSLTCTVSGGSISSYFWSWIRQPAGKGLEWIGRIHTTGSTNYNPSLKNRVIMSVDTSKNQFSLNLSSVTAADTAVYYCAREGTAFDIWGQGTMVTVSS VL: SYELTQSPSVSVSPGQTASIPCSGDKLGDKYACWYQQKPGQSPVLVIYQDTKRPSGIPERFSGSNSGNTATLTISETQAMDEADYYCQAWDSSTPWVFGGGTKLTVL"
  MEASURE UNIT: "fold"
  OBSERVED MEASUREMENT: 2.4
- BINDER: "RVFV-121 (antibody, V domains shown) VH: QMQLQESGPGLVKPSGTLSLTCAVSGDSISTSTWWSWVRQSPGKGLEWIGEIYHSESTNYNPSLKSRVSLSLDKSKNQLSLRLSSVTAADTGVYYCARGSLVFDYWGQGAQVVVSS VL: EIVMTQSPATLSVSPGERATLSCRASQSVSSNLAWYQQKPGQAPRLLIYAASTRATGIPARFSGSGSGTEFTLTISSLQSEDFAVYYCQQFNNWPRTFGQGTKVEIK"
  MEASURE UNIT: "fold"
  OBSERVED MEASUREMENT: 31.7

Taken from patent US12703739.
